- System: Jurkat
- Test Method Notes: Inhibition of cADPR-induced Ca2+ release in human Jurkat T cells using fluo-3 dye by spectrofluorometry analysis
- Type: functional, cell-based
Readout Type: IC50 (µM)

- Compound Structure String: "O=P1(O)OC[C@H]2O[C@H]([C@H](O)[C@@H]2O)n2cnc3c(ncn3[C@@H]3O[C@H](COP(=O)(O)O1)[C@@H](O)[C@H]3O)c2=S"
  Readout Type: "IC50"
  Unit Label: "µM"
  Recorded Measurement: 30

---

- System: Jurkat
- Test Method Notes: Inhibition of N1-cIDPR-induced Ca2+ release in human Jurkat T cells using fluo-3 dye by spectrofluorometry analysis
- Format: functional, cell-based

- Compound Structure String: "O=P1(O)OC[C@H]2O[C@H]([C@H](O)[C@@H]2O)n2cnc3c(ncn3[C@@H]3O[C@H](COP(=O)(O)O1)[C@@H](O)[C@H]3O)c2=S"
  Assay System: "Jurkat"
  IC50, nM: 3000
